TESTED_ON: SMARCA4 (Homo sapiens)
Construct: SMARCA2 and SMARCA4 protein degradation in MV4-11 cells; endogenous in cells; host or cells: MV4-11
METHOD: SMARCA4 Western blot MV4-11 degradation
Format: cell-based
PROTOCOL_CONDITIONS: MV4-11 cells, 24 h, read-out: SMARCA4 WB MV411 degradation 24 h: Average external-Abs DC50
The compounds listed here are annotated with their DC50.

Before answering, review these 8 worked examples.
Cc1ncsc1-c1ccc(CNC(=O)[C@@H]2C[C@@H](O)CN2C(=O)[C@@H](NC(=O)CC2CCC(c3cnc(N4C5CCC4CN(c4cc(-c6ccccc6O)nnc4N)C5)nc3)CC2)C(C)(C)C)cc1 (some centres unmarked) [I-502]	< 100 nM
Cc1ncsc1-c1ccc(CNC(=O)[C@@H]2C[C@@H](O)CN2C(=O)[C@@H](NC(=O)[C@H]2CC[C@@H](c3nccc(N4C5CCC4CN(c4cc(-c6ccccc6O)nnc4N)C5)n3)CC2)C(C)(C)C)cc1 [I-362]	< 100 nM
Cc1ncsc1-c1ccc(CNC(=O)[C@@H]2C[C@@H](O)CN2C(=O)[C@@H](NC(=O)Cc2ccc(-c3cnc(N4C5CCC4CN(c4cc(-c6ccccc6O)nnc4N)C5)nc3)cc2)C(C)(C)C)cc1 [I-335]	< 100 nM
Cc1ncsc1-c1ccc(CNC(=O)[C@@H]2C[C@@H](O)CN2C(=O)[C@@H](NC(=O)CCCCCN2CCCC(n3cc(-c4cc(-c5ccccc5O)nnc4N)cn3)C2)C(C)(C)C)cc1 (some centres unmarked) [I-456]	100 to 500 nM
Cc1ncsc1-c1ccc(CNC(=O)[C@@H]2C[C@@H](O)CN2C(=O)[C@@H](NC(=O)CN(C)CC#Cc2cnc(N3C4CCC3CN(c3cc(-c5ccccc5O)nnc3N)C4)nc2)C(C)(C)C)cc1 [I-495]	< 100 nM
Cc1ncsc1-c1ccc(CNC(=O)[C@@H]2C[C@@H](O)CN2C(=O)[C@@H](NC(=O)[C@H]2CC[C@H](CCN3CCC(n4cc(-c5cc(-c6ccccc6O)nnc5N)cn4)CC3)CC2)C(C)(C)C)cc1 [I-399]	100 to 500 nM
Cn1c(=O)n(C2CCC(=O)NC2=O)c2ccc(C#CCCNC(=O)Cc3cnc(N4C5CCC4CN(c4cc(-c6ccccc6O)nnc4N)C5)nc3)cc21 (centres unmarked) [I-295]	< 100 nM
Cc1ncsc1-c1ccc(CNC(=O)[C@@H]2C[C@@H](O)CN2C(=O)[C@@H](NC(=O)c2ccc(-c3ccc(N4CCC(Cn5cc(-c6cc(-c7ccccc7O)nnc6N)cn5)CC4)cc3)cc2)C(C)(C)C)cc1 [I-353]	> 1000 nM

Kindly note the recorded DC50 for Cc1ncsc1-c1ccc(CNC(=O)[C@@H]2C[C@@H](O)CN2C(=O)[C@@H](NC(=O)N[C@H]2CC[C@@H](c3cnc(N4C5CCC4CN(c4cc(-c6ccccc6O)nnc4N)C5)nc3)CC2)C(C)(C)C)cc1 [I-334] , which is < 100 nM

Kindly note the recorded DC50 for Cc1ncsc1-c1ccc(CNC(=O)[C@@H]2C[C@@H](O)CN2C(=O)[C@@H](NC(=O)CCCCCC2CCC(N3CCC(Cn4cc(-c5cc(-c6ccccc6O)nnc5N)cn4)CC3)CC2)C(C)(C)C)cc1 (some centres unmarked) [I-330] , which is < 100 nM

Kindly note the recorded DC50 for Cn1c(=O)n(C2CCC(=O)NC2=O)c2ccc(CCCN3CCC(c4cnc(N5CCN(c6cc(-c7ccccc7O)nnc6N)CC5)nc4)CC3)cc21 (centres unmarked) [I-288] , which is < 100 nM

Kindly note the recorded DC50 for NCC#Cc1cnc(N2C3CCC2CN(c2cc(-c4ccccc4O)nnc2N)C3)nc1 [I-535] , which is < 100 nM

Kindly note the recorded DC50 for Cc1ncsc1-c1ccc(CNC(=O)[C@@H]2C[C@@H](O)CN2C(=O)[C@@H](NC(=O)[C@H]2CC[C@@H](CN3CCC(n4cc(-c5cc(-c6ccccc6O)nnc5N)cn4)CC3)CC2)C(C)(C)C)cc1 [I-402] , which is > 1000 nM

---

TESTED_ON: SMARCA4 (Homo sapiens, UniProt P51532)
Construct: SMARCA2 and SMARCA4 protein degradation in MV4-11 cells; endogenous in cells; host or cells: MV4-11
Sequence (P51532 whole entry): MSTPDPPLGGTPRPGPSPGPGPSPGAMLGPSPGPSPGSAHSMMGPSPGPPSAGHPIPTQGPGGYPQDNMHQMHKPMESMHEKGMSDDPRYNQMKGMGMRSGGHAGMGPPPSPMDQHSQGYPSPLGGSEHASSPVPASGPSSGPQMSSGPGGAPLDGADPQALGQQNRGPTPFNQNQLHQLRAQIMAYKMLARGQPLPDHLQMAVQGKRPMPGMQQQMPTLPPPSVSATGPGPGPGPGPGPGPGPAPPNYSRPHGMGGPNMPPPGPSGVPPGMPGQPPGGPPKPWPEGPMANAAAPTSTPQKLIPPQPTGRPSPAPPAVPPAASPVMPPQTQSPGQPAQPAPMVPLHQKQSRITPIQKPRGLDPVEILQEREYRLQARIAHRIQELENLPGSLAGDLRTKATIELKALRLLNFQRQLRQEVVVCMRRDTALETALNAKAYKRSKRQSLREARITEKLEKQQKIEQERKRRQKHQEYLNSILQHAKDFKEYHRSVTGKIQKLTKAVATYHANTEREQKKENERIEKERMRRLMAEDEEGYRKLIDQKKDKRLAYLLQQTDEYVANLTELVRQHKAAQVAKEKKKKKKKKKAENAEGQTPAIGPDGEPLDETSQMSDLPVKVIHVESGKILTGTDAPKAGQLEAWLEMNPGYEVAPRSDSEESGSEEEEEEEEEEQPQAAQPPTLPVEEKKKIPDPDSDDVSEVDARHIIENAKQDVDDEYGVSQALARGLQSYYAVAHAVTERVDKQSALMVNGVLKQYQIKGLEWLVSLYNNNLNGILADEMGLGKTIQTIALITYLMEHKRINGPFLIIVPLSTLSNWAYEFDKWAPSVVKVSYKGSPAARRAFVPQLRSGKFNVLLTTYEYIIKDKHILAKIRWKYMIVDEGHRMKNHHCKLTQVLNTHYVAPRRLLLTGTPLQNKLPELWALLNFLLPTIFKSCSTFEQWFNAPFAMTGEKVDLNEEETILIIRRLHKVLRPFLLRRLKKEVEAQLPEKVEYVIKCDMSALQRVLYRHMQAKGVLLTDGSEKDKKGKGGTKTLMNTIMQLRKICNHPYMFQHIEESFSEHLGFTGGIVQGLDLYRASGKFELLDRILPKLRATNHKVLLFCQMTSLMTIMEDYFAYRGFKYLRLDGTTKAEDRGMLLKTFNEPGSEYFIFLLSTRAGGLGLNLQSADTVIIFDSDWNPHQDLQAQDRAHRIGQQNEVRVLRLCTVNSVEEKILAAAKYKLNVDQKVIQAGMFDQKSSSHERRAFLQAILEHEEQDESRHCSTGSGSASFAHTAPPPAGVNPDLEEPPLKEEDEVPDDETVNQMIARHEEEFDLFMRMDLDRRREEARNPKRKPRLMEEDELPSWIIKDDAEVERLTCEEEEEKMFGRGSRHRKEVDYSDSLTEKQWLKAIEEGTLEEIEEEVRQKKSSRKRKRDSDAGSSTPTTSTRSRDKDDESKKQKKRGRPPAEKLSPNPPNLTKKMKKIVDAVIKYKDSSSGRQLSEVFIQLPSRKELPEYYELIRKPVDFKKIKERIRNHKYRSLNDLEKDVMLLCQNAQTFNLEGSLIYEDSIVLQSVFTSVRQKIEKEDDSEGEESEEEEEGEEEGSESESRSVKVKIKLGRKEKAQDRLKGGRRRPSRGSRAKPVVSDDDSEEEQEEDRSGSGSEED
METHOD: SMARCA4 Western blot MV4-11 degradation
Assay type: cell-based
PROTOCOL_CONDITIONS: MV4-11 cells, 24 h, read-out: SMARCA4 WB MV411 degradation 24 h: Average external-Abs DC50
The molecules listed here are annotated with their DC50.

Before answering, review these 5 worked examples.
Cc1ncsc1-c1ccc(CNC(=O)[C@@H]2C[C@@H](O)CN2C(=O)[C@@H](NC(=O)CCCN2CCC(n3cc(-c4cc(-c5ccccc5O)nnc4N)cn3)CC2)C(C)(C)C)cc1	100 to 500 nM
Cc1ncsc1-c1ccc(CNC(=O)[C@@H]2C[C@@H](O)CN2C(=O)[C@@H](NC(=O)Cc2ccc(N3CCC(n4cc(-c5cc(-c6ccccc6O)nnc5N)cn4)CC3)cc2)C(C)(C)C)cc1	> 1000 nM
Cc1ncsc1-c1ccc(CNC(=O)[C@@H]2C[C@@H](O)CN2C(=O)[C@@H](NC(=O)N2CCC(N3CCC(c4cnc(N5C6CCC5CN(c5cc(-c7ccccc7O)nnc5N)C6)nc4)CC3)CC2)C(C)(C)C)cc1	> 1000 nM
Cc1ncsc1-c1ccc(CNC(=O)[C@@H]2C[C@@H](O)CN2C(=O)[C@@H](NC(=O)[C@H]2CC3(C2)C[C@H](N2CCC(c4cnc(N5C6CCC5CN(c5cc(-c7ccccc7O)nnc5N)C6)nc4)CC2)C3)C(C)(C)C)cc1 (stereo partly shown) [I-423]	100 to 500 nM
Nc1nnc(-c2ccccc2O)cc1-c1cnn(C2CCN([C@H]3CC[C@@H](CNc4ccc5c(c4)C(=O)N(C4CCC(=O)NC4=O)C5=O)CC3)CC2)c1 (stereo partly shown)	< 100 nM

Kindly note the recorded DC50 for Cc1ncsc1-c1ccc(CNC(=O)[C@@H]2C[C@@H](O)CN2C(=O)[C@@H](NC(=O)[C@H]2C[C@@]3(C2)C[C@H](c2cnc(N4C5CCC4CN(c4cc(-c6ccccc6O)nnc4N)C5)nc2)C3)C(C)(C)C)cc1 (stereo partly shown) , which is < 100 nM

Kindly note the recorded DC50 for Cn1c(=O)n(C2CCC(=O)NC2=O)c2ccc(C3CC4(C3)CC(N3CCC(c5cnc(N6C7CCC6CN(c6cc(-c8ccccc8O)nnc6N)C7)nc5)CC3)C4)cc21 (single isomer, unassigned) [I-536 (P2)] , which is < 100 nM

Kindly note the recorded DC50 for Cc1ncsc1-c1ccc(CNC(=O)[C@@H]2C[C@@H](O)CN2C(=O)[C@@H](NC(=O)[C@H]2CC[C@H](c3cnc(N4C5CCC4CN(c4cc(-c6ccccc6O)nnc4N)C5)nc3C)CC2)C(C)(C)C)cc1 , which is < 100 nM

---

The molecules listed here are annotated with their DC50.
TESTED_ON: SMARCA2 (Homo sapiens)
Sequence (P51531 whole entry): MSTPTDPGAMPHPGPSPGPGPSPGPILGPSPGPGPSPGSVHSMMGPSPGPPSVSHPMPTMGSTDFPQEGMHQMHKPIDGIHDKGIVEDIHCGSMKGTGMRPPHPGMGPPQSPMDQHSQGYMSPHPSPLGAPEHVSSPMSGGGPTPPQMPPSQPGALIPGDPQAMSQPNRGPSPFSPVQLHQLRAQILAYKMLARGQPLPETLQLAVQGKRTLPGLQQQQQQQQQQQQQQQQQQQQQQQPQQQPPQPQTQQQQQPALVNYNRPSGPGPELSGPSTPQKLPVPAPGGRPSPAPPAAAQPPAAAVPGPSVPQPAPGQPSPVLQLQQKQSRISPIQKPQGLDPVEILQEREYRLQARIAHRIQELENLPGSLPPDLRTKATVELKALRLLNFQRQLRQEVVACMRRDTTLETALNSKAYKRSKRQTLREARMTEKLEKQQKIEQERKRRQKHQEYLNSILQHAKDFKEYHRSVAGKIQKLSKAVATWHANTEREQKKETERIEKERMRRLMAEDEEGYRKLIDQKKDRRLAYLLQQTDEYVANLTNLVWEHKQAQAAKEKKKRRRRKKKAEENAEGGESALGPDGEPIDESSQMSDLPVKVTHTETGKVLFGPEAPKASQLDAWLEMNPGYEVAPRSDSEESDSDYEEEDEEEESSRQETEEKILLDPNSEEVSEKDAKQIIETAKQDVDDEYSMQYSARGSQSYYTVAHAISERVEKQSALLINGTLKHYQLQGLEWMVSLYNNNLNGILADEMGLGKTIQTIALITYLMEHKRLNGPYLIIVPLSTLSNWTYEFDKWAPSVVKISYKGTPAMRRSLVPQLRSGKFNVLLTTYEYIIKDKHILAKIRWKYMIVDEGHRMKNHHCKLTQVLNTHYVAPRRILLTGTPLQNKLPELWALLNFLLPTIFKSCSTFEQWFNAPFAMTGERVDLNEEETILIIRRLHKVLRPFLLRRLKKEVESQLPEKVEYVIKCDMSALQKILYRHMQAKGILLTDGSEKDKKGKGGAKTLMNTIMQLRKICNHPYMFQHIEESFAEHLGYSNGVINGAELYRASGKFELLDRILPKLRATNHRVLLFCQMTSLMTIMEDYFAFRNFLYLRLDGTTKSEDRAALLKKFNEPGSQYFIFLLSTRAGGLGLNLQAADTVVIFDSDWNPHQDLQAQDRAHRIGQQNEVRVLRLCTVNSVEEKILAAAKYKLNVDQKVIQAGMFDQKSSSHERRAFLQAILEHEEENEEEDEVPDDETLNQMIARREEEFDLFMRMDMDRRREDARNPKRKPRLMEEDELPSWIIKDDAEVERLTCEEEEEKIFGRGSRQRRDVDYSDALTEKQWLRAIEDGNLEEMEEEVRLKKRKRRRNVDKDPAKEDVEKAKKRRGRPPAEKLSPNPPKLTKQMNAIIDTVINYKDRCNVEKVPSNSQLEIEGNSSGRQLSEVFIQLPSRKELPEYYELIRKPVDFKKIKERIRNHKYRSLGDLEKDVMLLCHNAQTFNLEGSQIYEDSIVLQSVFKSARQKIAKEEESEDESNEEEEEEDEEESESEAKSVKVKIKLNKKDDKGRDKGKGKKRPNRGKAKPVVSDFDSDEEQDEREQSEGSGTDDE
METHOD: MSD SMARCA2 degradation in NCI-H1299 cell line (24 h)
Format: cell-based
Design: HC: NCI-H1299 cells treated with DMSO; host or cells: NCI-H1299
PROTOCOL_CONDITIONS: NCI-H1299 cells, read-out: SMARCA2 MSD H1299 degradation 24 h: External Abs-DC50

Before answering, review these 5 worked examples.
Cn1c(=O)n(C2CCC(=O)NC2=O)c2cccc(CN3CCC(n4cc(-c5cc(-c6ccccc6O)nnc5N)cn4)CC3)c21 (stereo not drawn) [I-173]	> 1000 nM
Cn1c(=O)n(C2CCC(=O)NC2=O)c2cccc(CCCOCC3CN(Cc4ccc(N5CCN(c6cc(-c7ccccc7O)nnc6N)CC5)cc4)C3)c21 (stereo not drawn) [I-124]	100 to 500 nM
Cn1c(=O)n(C2CCC(=O)NC2=O)c2ccc(CCCCN3CCN(Cc4ccc(-c5cc(-c6ccccc6O)nnc5N)cc4)CC3)cc21 (stereo not drawn) [I-154]	> 1000 nM
Cc1ncsc1-c1ccc(CNC(=O)[C@@H]2C[C@@H](O)CN2C(=O)[C@@H](NC(=O)CCCCCCCCCN2CCC(Cn3cc(-c4cc(-c5ccccc5O)nnc4N)cn3)CC2)C(C)(C)C)cc1 [I-214]	501 to 1000 nM
CN(Cc1ccc2c(c1)n(C)c(=O)n2C1CCC(=O)NC1=O)C1CCN(Cc2cnc(N3C4CCC3CN(c3cc(-c5ccccc5O)nnc3N)C4)nc2)CC1 (stereo not drawn) [I-164]	< 100 nM

In the following, a different molecule is considered.
Kindly note the recorded DC50 for CC(c1ccc(C(=O)NCCOCCOCCOCCCc2ccc3c(c2)n(C)c(=O)n3C2CCC(=O)NC2=O)cc1)n1cc(-c2cc(-c3ccccc3O)nnc2N)cn1 (stereo not drawn) [I-12] , which is > 1000 nM
